Source: the supplement of paper PMC10567573

A collection of variants and their measured protein stability index
B1: ZNF263 (parent)
chain: KPYKCTLCGENFSHRSNLIRHQRI

variants of: B1; assay: protein stability index of a GFP-peptide fusion (GPS, HEK-293T) (PSI 1-6); higher = more stable; settings: c terminus: a fixed tail appended;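 further: lentivirally expressed fusions sorted by FACS into six bins by GFP to DsRed ratio, PSI derived from sequencing read proportions per bin multiplied by bin number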
The reply should be a number, written without any unit.

Can you share its protein stability index? I mean this variant: H14C 2.68

Moving on to K4I 2.87

Consider the record given below.
Can you share its protein stability index? I mean this variant: K4M 2.23
